test: Stability of DNPs by DLS after storage at 5° C.; type: physicochemical; conditions: DNPs: IAJD 4.0 mg/mL + Luc-mRNA 0.1 mg/mL, injection in acetate buffer pH 4.00
value.kind: pH Sample

1. CCCCCCCCCCCCCCCOc1cc(COC(=O)CCCN2CCN(CCO)CC2)cc(OCCCCCCCCCCCC)c1 [IAJD 144] ... 4.40
2. CCCCCCCCCCCCCOc1cc(COC(=O)CCCN2CCN(C)CC2)cc(OCCCCCCCCCCC)c1 [IAJD 116] ... 4.47
3. CCCCCCCCCCCCCCOc1cc(CNC(=O)CCCN2CCN(C)CC2)cc(OCCCCCCCCCCC)c1 [IAJD 133] ... 4.63
4. CCCCCCCCCCCOc1cc(COC(=O)c2cc(OCCOCCOCCCC(=O)CCCN3CCCCC3)c(OCCOCCOCCOCc3ccccc3)c(OCCOCCOCCOC(=O)CCCN3CCCCC3)c2)cc(OCC(CC)CCCC)c1 (stereo not shown) [IAJD 155] ... 4.93
5. CCCCCCCCCCCCCCCCCOc1cc(COC(=O)CCCN2CCN(C)CC2)cc(OCCCCCCCCCCC)c1 [IAJD 126] ... 4.48
6. CCCCCCCCCCCCCCCOc1cc(COC(=O)CCCN2CCN(C)CC2)cc(OCC(CC)CCCC)c1 (stereo not shown) [IAJD 135] ... 4.95
7. CCCCCCCCCCCCCCCCCOc1cc(COC(=O)CCCN2CCN(CCO)CC2)cc(OCCCCCCCCCCCCCCC)c1 [IAJD 152] ... 4.45
